Entries and their pIC50
target-or-test-system: Baculoviral IAP repeat-containing protein 2 (Homo sapiens, UniProt Q13490)
protocol-text: For cIAP-1 BIR3 and cIAP-2 BIR3 assays, a fluorescently labeled Smac mimetic (Smac-2F) was used as the fluorescent probe. The Kd values of Smac-2F to cIAP-1 BIR3 and cIAP-2 BIR3 were determined by monitoring the total fluorescence polarization of mixtures composed with the fluorescent probe at a fixed concentration and proteins with increasing concentrations up to full saturation. Fluorescence polarization values were measured using the Infinite M-1000 plate reader (Tecan U.S., Research Triangle Park, N.C.) in Microfluor 2 96-well, black, round-bottom plates (Thermo Scientific). To each well, 1 nM of SMAC-2F and increasing concentrations of protein were added to a final volume of 125 ul in the assay buffer (100 mM potassium phosphate, pH 7.5).
pIC50: −log10 of the molar value.

Reference set, count: 3
CN[C@@H](C)C(=O)N[C@H]1CN(C(=O)Nc2ccc(CCc3ccc(NC(=O)N4CC[C@H]5CC[C@@H](C(=O)NC(c6ccccc6)c6ccccc6)N5C(=O)[C@@H](NC(=O)[C@H](C)NC)C4)cc3)cc2)CC[C@H]2CCC(C(=O)NC(c3ccccc3)c3ccccc3)N2C1=O (some centres undefined)	> 6.52
CN[C@@H](C)C(=O)N[C@H]1CN(C(=O)NCCCCCCNC(=O)N2CC[C@H]3CC[C@@H](C(=O)N[C@H]4CC[C@@H]4c4ccccc4)N3C(=O)[C@@H](NC(=O)[C@H](C)NC)C2)CC[C@H]2CCC(C(=O)N[C@H]3CC[C@@H]3c3ccccc3)N2C1=O (some centres undefined)	> 6.00
CN[C@@H](C)C(=O)N[C@H]1CN(C(=O)Nc2ccc(NC(=O)N3CC[C@H]4CC[C@@H](C(=O)N[C@H]5CCC[C@H]5c5ccccc5)N4C(=O)[C@@H](NC(=O)[C@H](C)NC)C3)cc2)CC[C@H]2CC[C@@H](C(=O)N[C@H]3CCC[C@H]3c3ccccc3)N2C1=O	> 6.00

Now for another entry.
Suppose we examine the compound CN[C@@H](C)C(=O)N[C@H]1CN(C(=O)NCCCCCCNC(=O)N2CC[C@H]3CC[C@@H](C(=O)NCCc4ccccc4)N3C(=O)[C@@H](NC(=O)[C@H](C)NC)C2)CC[C@H]2CCC(C(=O)NCCc3ccccc3)N2C1=O (some centres undefined) ; what pIC50 value has been reported? > 6.00
